- METHOD NOTES: Acute toxicity (LD50) by intraperitoneal injection to mice
- EXPERIMENTAL PARAMETERS: mouse, in vivo, ip, mortality 48 hours after injection
VALUE TYPE: LD50 at 48 h (mg/kg)
Entry rule: numbers only, all in mg/kg.

INSERT INTO measurements (compound, value_type, recorded_measurement) VALUES
  ('O=C(C1CCCCC1)N1N=CCC1c1ccccc1 (centres unmarked)', 'LD50 at 48 h', 630),
  ('CC(=O)N1N=CCC1c1ccccc1 (centres unmarked)', 'LD50 at 48 h', 1100),
  ('O=C(c1ccc(C(F)(F)F)cc1)N1N=CCC1c1ccccc1 (centres unmarked)', 'LD50 at 48 h', 810),
  ('C1=NNC(c2ccncc2)C1 (centres unmarked)', 'LD50 at 48 h', 540),
  ('Fc1cccc(C2CC=NN2)c1 (centres unmarked)', 'LD50 at 48 h', 710);

What value of LD50 at 48 h has been reported for the following compound? C1=NNC(c2cccnc2)C1 (centres unmarked)
600

And what about the compound COc1ccccc1C1CC=NN1C(=O)c1cccnc1 (centres unmarked) ?
610

Please give the result for O=C(c1ccco1)N1N=CCC1c1ccccc1 (centres unmarked) too.
710

Cool, now O=C(c1cccs1)N1N=CCC1c1ccccc1 (centres unmarked)
830

For CCOC(=O)N1N=CCC1c1ccccc1 (centres unmarked) then?
830

Cool, now COc1ccc(C2CC=NN2C(=O)c2cccnc2)cc1 (centres unmarked)
830

And the next one, O=C(c1ccncc1)N1N=CCC1c1ccccc1 (centres unmarked) ?
630

---

- METHOD NOTES: Acute toxicity (LD50) by intraperitoneal injection to mice
- EXPERIMENTAL PARAMETERS: mouse, in vivo, ip, mortality 48 hours after injection
VALUE TYPE: LD50 at 48 h (mg/kg)
Express your answer in mg/kg, writing the number without its unit.

Recorded LD50 at 48 h, per entry:
INSERT INTO measurements (molecule, recorded_measurement) VALUES
  ('O=C(Nc1cccnc1)N1N=CCC1c1ccccc1 (centres unmarked)', 630),
  ('Cc1ccccc1C1CC=NN1C(=O)c1cccnc1 (centres unmarked)', 610),
  ('O=C(c1cccnc1)N1N=CCC1c1ccccc1 (centres unmarked)', 600),
  ('CC(C)C1CC=NN1C(=O)c1cccnc1 (centres unmarked)', 830);

From here, focus on the item given below.
Requested read-out: LD50 at 48 h. Entry: O=C([O-])N1N=CCC1c1ccccc1.[Na+] (centres unmarked)
710

---

- System: cerebral infarction of rats caused by occlusion of the middle cerebral artery
- METHOD NOTES: Action against cerebral infarction of rats caused by occlusion of the middle cerebral artery (TTC stain, planimeter)
- Format: in vivo
- EXPERIMENTAL PARAMETERS: i.p. three times, 24 h after occlusion, control group 11.58 ± 0.81, *5% significant difference
# Rate of Infarcted Area values compiled below
Note: unit % is implicit; provide only the numeric part.

INSERT INTO measurements (compound, value_units, recorded_measurement) VALUES
  ('O=C(c1cccnc1)N1N=CCC1c1ccco1 (centres unmarked) [Compound 7]', '%', 6.96),
  ('Clc1ccccc1C1CC=NN1 (centres unmarked) [Compound 34, 5-(2-Chlorophenyl)-2-pyrazoline]', '%', 8.56),
  ('CC1CC=NN1C(=O)c1cccnc1 (centres unmarked) [Compound 17]', '%', 8.01),
  ('C1=NNC(c2ccccc2)C1 (centres unmarked) [Compound 31, 5-Phenyl-2-pyrazoline]', '%', 7.93);

As a next step, examine the compound that follows.
For the compound shown here, O=C(c1ccccc1)N1N=CCC1c1ccccc1 (centres unmarked) [Compound 59, 1-Benzoyl-5-phenyl-2-pyrazoline] , give the reported Rate of Infarcted Area.
7.69
